Listed below: MIC values for each entry.
# Test system: Klebsiella pneumoniae
# MEASUREMENT DESCRIPTION: Inhibitory activity against Klebsiella pneumoniae 12-1183
# Type: functional
MEASURED ATTRIBUTE: MIC

1. CCn1cc(C(=O)O)c(=O)c2ccc(C)nc21 = > 64 µg/mL
2. CO[C@@]1(NC(=O)Cc2cccs2)C(=O)N2C(C(=O)O)=C(COC(N)=O)CS[C@@H]21 = > 128 µg/mL
3. COc1c(N2C[C@@H]3CCCN[C@@H]3C2)c(F)cc2c(=O)c(C(=O)O)cn(C3CC3)c12 = > 8 µg/mL
4. C[C@H]1COc2c(N3CCN(C)CC3)c(F)cc3c(=O)c(C(=O)O)cn1c23.C[C@H]1COc2c(N3CCN(C)CC3)c(F)cc3c(=O)c(C(=O)O)cn1c23.O = > 16 µg/mL
5. O=C(O)c1cn(C2CC2)c2cc(N3CCNCC3)c(F)cc2c1=O = > 16 µg/mL
6. CC(C)(O/N=C(\C(=O)N[C@@H]1C(=O)N2C(C(=O)[O-])=C(C[n+]3ccccc3)CS[C@H]12)c1csc(N)n1)C(=O)O = 128 µg/mL
7. CO/N=C(\C(=O)N[C@@H]1C(=O)N2C(C(=O)O)=C(COC(C)=O)CS[C@H]12)c1csc(N)n1 = 16 µg/mL

---

The following compounds are shown together with reported MIC values.
# System: Klebsiella pneumoniae
# MEASUREMENT DESCRIPTION: Inhibitory activity against Klebsiella pneumoniae 35
# Format: functional
MEASURED ATTRIBUTE: MIC

1) COc1c(N2C[C@@H]3CCCN[C@@H]3C2)c(F)cc2c(=O)c(C(=O)O)cn(C3CC3)c12 [MOXIFLOXACIN] = > 8 µg/mL
2) CO/N=C(\C(=O)N[C@@H]1C(=O)N2C(C(=O)O)=C(COC(C)=O)CS[C@H]12)c1csc(N)n1 [CEFOTAXIME] = > 128 µg/mL
3) CC(C)(O/N=C(\C(=O)N[C@@H]1C(=O)N2C(C(=O)[O-])=C(C[n+]3ccccc3)CS[C@H]12)c1csc(N)n1)C(=O)O [CEFTAZIDIME] = > 128 µg/mL
4) CCn1cc(C(=O)O)c(=O)c2ccc(C)nc21 [NALIDIXIC ACID] = > 64 µg/mL
